Field: pIC50. Provide a value for each of the compounds that follow.
system: skeletal-muscle sodium channels (NaV1.4); test: Voltage-clamp recordings of INa in single muscle fibers: tonic block and use-dependent block; assay type: cell-based, Rana Esculenta; conditions: HP -100 mV to -20 mV, 10-Hz trains; read-out: Use-dependent block 10-Hz IC50
Hey, just a heads up that pIC50 is the negative log base 10 of the concentration in molar.

Entry Cc1cccc(C)c1OCC(C)NC(=O)C1=CC(C)(C)NC1(C)C (centres unmarked) — recorded pIC50 = 5.70

GET /value?item= Cc1cccc(C)c1OCC(C)N (centres unmarked) [Mex, reference compound] &field=pIC50 returns 4.63

Briefly, pIC50 measured for Cc1cccc(C)c1OC[C@@H](C)N [R-Mex, reference compound] : 4.51

// pIC50 lookup, compound = Cc1cccc(C)c1OCC(NC(=O)C1=CC(C)(C)NC1(C)C)C(C)C (centres unmarked) , result: 6.22

Noted for Cc1cccc(C)c1OC[C@H](C)N [S-Mex, reference compound] : its pIC50 reads 4.49

###

Target: skeletal-muscle sodium channels (NaV1.4)
Experiment: Voltage-dependent block of INa at HP -140 and -70 mV (resting and inactivated state affinity)
Settings: computed from Kr, K-70 and h∞ curve; read-out: Inactivated state block, calculated Ki
Description: The cut-end fiber was then bathed in an internal solution and mounted across three chamber partitions, which delineated four pools. Three strips of vaseline were applied over the fiber and carefully sealed to the fiber to reduce leakage. […] Sodium currents were recorded using an amplifier connected via a A/D and D/A Digidata 1,200 Interface (Axon) to a 486 DX2/66 personal computer and stored on the hard disk. […]
observed property: Ki (nM)
A number alone suffices; assume nM.

Reported Ki ( Cc1cccc(C)c1OCC(C)NC(=O)C1=CC(C)(C)NC1(C)C (stereo not drawn) [VM11] ) = 4200

Quick note, Ki for Cc1cccc(C)c1OCC(C)N (stereo not drawn) [Mex, reference compound] landed at 2000

Entry Cc1cccc(C)c1OCC(NC(=O)C1=CC(C)(C)NC1(C)C)C(C)C (stereo not drawn) [CI16] — recorded Ki = 1800

###

Can you tell me logP for the items I'm about to list?
test: Ionization constants and lipophilicity (Sirius GLpKa analyzer); type: physicochemical
# answer = number (no unit)

Given item Cc1cccc(C)c1OCC(NC(=O)C1=CC(C)(C)NC1(C)C)C(C)C (stereo not drawn) , the value recorded as its logP is 3.2

// sample Cc1cccc(C)c1OCC(C)NC(=O)C1=CC(C)(C)NC1(C)C (stereo not drawn) , its logP was 2.8

The compound listed as Cc1cccc(C)c1OCC(N)C(C)C (stereo not drawn) has a reported logP of 2.72

###

For each of the compounds below, state its IC50.
system: skeletal-muscle sodium channels (NaV1.4); test: Voltage-dependent block of INa at HP -140 and -70 mV (resting and inactivated state affinity); assay type: cell-based, Rana Esculenta; details: HP -140 mV, 0.3-Hz, resting state; read-out: Voltage-dependent block HP-140 mV IC50; Kr
Use µM as the unit, but write only the number.

Lab note: Cc1cccc(C)c1OCC(C)NC(=O)C1=CC(C)(C)NC1(C)C (stereo not drawn) gave IC50 of 15.5

Per the records, this compound ( Cc1cccc(C)c1OCC(NC(=O)C1=CC(C)(C)NC1(C)C)C(C)C (stereo not drawn) ) has IC50 equal to 7.7

Briefly, IC50 measured for Cc1cccc(C)c1OCC(C)N (stereo not drawn) [Mex, reference compound] : 148

###

tested on: C2C12 cells; test: Cell culture cytotoxicity assay (CCK-8), 8 h incubation; format: cell-based, Murine; conditions: 8 h of incubation, read-out: Cytotoxic effect IC50
observed property: pIC50
FYI, pIC50 means -log10 of a concentration in mol per litre.

// OO : pIC50 value = 3.53

###

Test: Ionization constants and lipophilicity (Sirius GLpKa analyzer)
Assay type: physicochemical
Details: amine group of the drugs
Experimental: The h∞ curves have been fitted with a single Boltzmann, and the potential at which 50% of the sodium channels were inactivated (Vh1/2) was calculated at the inflection point of the curves. […] The statistical significance between IC50 values obtained from the fit was evaluated using a number of degrees of freedom equal to the total number of preparations determining each point of the curve minus the number of means determining the curve minus two for the free parameters. […]
Give pKa for every item shown.
// return a plain number; no unit text

Memo: Cc1cccc(C)c1OCC(NC(=O)C1=CC(C)(C)NC1(C)C)C(C)C (stereo not drawn) , reported pKa: 8.53

Consider Cc1cccc(C)c1OCC(N)C(C)C (stereo not drawn) . Its measured pKa is 8.97

Recorded pKa (compound Cc1cccc(C)c1OCC(C)NC(=O)C1=CC(C)(C)NC1(C)C (stereo not drawn) ): 8.5
